Target: T1, human RANKL protein (Sino Biological, 11682-HNCH) (human, UniProt O14788 136-317, limits assumed)
T1 construct: Bought protein
T1 sequence (looked up): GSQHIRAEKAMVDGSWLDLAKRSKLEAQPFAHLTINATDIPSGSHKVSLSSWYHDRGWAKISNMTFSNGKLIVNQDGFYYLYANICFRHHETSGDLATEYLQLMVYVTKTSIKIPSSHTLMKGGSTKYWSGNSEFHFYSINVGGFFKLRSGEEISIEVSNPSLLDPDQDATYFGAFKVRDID
Experiment: SPR (Biacore), antibody captured on Protein A chip, RANKL in flow, 1:1 fit
reported_property: kon
Give the value; after it, write the unit.

Query :: Please report the measured kon for 2-87L (antibody, IgG4, V domains shown, Variable regions fused to human constant regions) VH: EVQLLESGGGLVQPGGSLRLSCAASGFTFSSYAMSWVRQAPGKGLEWVSGITGSGGSTYYADSVKGRFTISRDNSKNTLYLQMNSLRAEDTAVYYCAKDPGTTVIMSWFDPWGQGTLVTVSS VL: EIVLTQSPGTLSLSPGERATLSCRASQYLPFHRLAWYQQKPGQAPRLLIYDTSSRATGIPDRFSGSGSGTDFTLTISRLEPEDFAVFYCQQYGSSPRTFGQGTKVEIK
Result :: 10700 M⁻¹ s⁻¹
